The reported numbers originate from PubChem BioAssay (NCI).

# Test system: SK-MEL-5 melanoma
# testSummary: NCI-60 one-dose screen, 48 h
# conditionInfo: 10 µM
About 83,000 compounds went through this panel and 20% of them were active in at least one assay; those are over-represented in the sample as a whole. Calls of active or inactive are those of the source. The calls were made as follows: active = growth percent below 10; inactive = the rest.
Classes used: T = active, F = inactive

[
  {
    "compound": "O=C1/C(=C\\c2ccc(F)cc2)CN(C(=O)c2ccc([N+](=O)[O-])cc2)C/C1=C\\c1ccc(F)cc1",
    "testTarget": "SK-MEL-5 melanoma",
    "categoryLabel": "F"
  },
  {
    "compound": "N#CCCN1C/C(=C/c2ccc(Cl)cc2)C(=O)/C(=C/c2ccc(Cl)cc2)C1",
    "testTarget": "SK-MEL-5 melanoma",
    "categoryLabel": "T"
  },
  {
    "compound": "CCC(=O)N1C/C(=C/c2ccc(Br)cc2)C(=O)/C(=C/c2ccc(Br)cc2)C1",
    "testTarget": "SK-MEL-5 melanoma",
    "categoryLabel": "T"
  },
  {
    "compound": "Nc1ncn([C@@H]2O[C@H](CO)[C@@H](O)[C@H]2O)c(=O)n1",
    "testTarget": "SK-MEL-5 melanoma",
    "categoryLabel": "F"
  },
  {
    "compound": "O=C(Nc1cccc(-n2cc(-c3ccncc3)c(-c3ccc(O)c(Cl)c3)n2)c1)c1ccc(Cl)c(Cl)c1",
    "testTarget": "SK-MEL-5 melanoma",
    "categoryLabel": "F"
  },
  {
    "compound": "CCCN(CCC)CCC(O)c1cc2c(c3ccccc13)CCCC2 (stereo unspecified)",
    "testTarget": "SK-MEL-5 melanoma",
    "categoryLabel": "F"
  },
  {
    "compound": "CCOCC(=O)C(C#N)c1ccc(Cl)c(Cl)c1 (stereo unspecified)",
    "testTarget": "SK-MEL-5 melanoma",
    "categoryLabel": "F"
  },
  {
    "compound": "O=C(NC(Cc1ccc(O)cc1)C(=O)N=Nc1c(O)[nH]c2ccccc12)c1ccccc1 (stereo unspecified)",
    "testTarget": "SK-MEL-5 melanoma",
    "categoryLabel": "F"
  },
  {
    "compound": "O=C(Nc1cccc(-n2cc(-c3ccncc3)c(-c3cc(O)cc(Cl)c3)n2)c1)c1ccc(N2CCOCC2)c(C(F)(F)F)c1",
    "testTarget": "SK-MEL-5 melanoma",
    "categoryLabel": "F"
  },
  {
    "compound": "COc1ccc2c(c1)/C(=C\\c1c[nH]c3ccc(OC)cc13)C(=O)N2",
    "testTarget": "SK-MEL-5 melanoma",
    "categoryLabel": "F"
  },
  {
    "compound": "CC(C)(C#N)Nc1ccccc1",
    "testTarget": "SK-MEL-5 melanoma",
    "categoryLabel": "F"
  },
  {
    "compound": "CC1CC(=O)OC(C)C1 (stereo unspecified)",
    "testTarget": "SK-MEL-5 melanoma",
    "categoryLabel": "F"
  },
  {
    "compound": "COc1cc(C(=O)/C=C/c2cc(-c3cc(OC)c(OC)c(OC)c3)n[nH]2)cc(OC)c1OC",
    "testTarget": "SK-MEL-5 melanoma",
    "categoryLabel": "F"
  },
  {
    "compound": "N#Cc1cccc(OCc2nc(N)nc(N)c2-c2ccc(Cl)c(Cl)c2)c1",
    "testTarget": "SK-MEL-5 melanoma",
    "categoryLabel": "F"
  },
  {
    "compound": "CC(C)C[C@H](NC(=O)[C@H](Cc1cccc2ccccc12)NS(=O)(=O)c1cccc2cccnc12)B(O)O",
    "testTarget": "SK-MEL-5 melanoma",
    "categoryLabel": "T"
  },
  {
    "compound": "COc1ccc(-c2nn(-c3cccc(NC(=O)c4cccc(C(F)(F)F)c4)c3)cc2-c2ccncc2)cc1Cl",
    "testTarget": "SK-MEL-5 melanoma",
    "categoryLabel": "F"
  },
  {
    "compound": "COC(=O)c1c(-c2ccccc2)csc1NC(=O)c1c(-c2ccccc2)noc1C",
    "testTarget": "SK-MEL-5 melanoma",
    "categoryLabel": "F"
  },
  {
    "compound": "COc1ccc(-c2nc(-c3nc4ccc(Cl)cc4[nH]3)c3ccccn23)cc1",
    "testTarget": "SK-MEL-5 melanoma",
    "categoryLabel": "F"
  },
  {
    "compound": "O=S(=O)(NCCCNc1nccc(-c2c(-c3ccc(F)cc3)nc3sccn23)n1)c1ccc(F)cc1",
    "testTarget": "SK-MEL-5 melanoma",
    "categoryLabel": "F"
  },
  {
    "compound": "O=C1NC(=O)N(Cc2ccccc2)CC1Br (stereo unspecified)",
    "testTarget": "SK-MEL-5 melanoma",
    "categoryLabel": "F"
  },
  {
    "compound": "COc1cc(-c2cc(/C=C/C(=O)c3ccc4c(c3)OCO4)[nH]n2)cc(OC)c1OC",
    "testTarget": "SK-MEL-5 melanoma",
    "categoryLabel": "F"
  },
  {
    "compound": "COc1ccc(S(=O)(=O)Nc2c(/C=C\\c3cc(OC)c(OC)c(OC)c3)ccc(OC)c2O)cc1",
    "testTarget": "SK-MEL-5 melanoma",
    "categoryLabel": "T"
  },
  {
    "compound": "CN(C)C(=S)N/N=C\\C=N/NC(=S)N(C)C",
    "testTarget": "SK-MEL-5 melanoma",
    "categoryLabel": "F"
  },
  {
    "compound": "COc1cc(NC(=O)c2sc3nc4c(cc3c2N)C(O)CCC4)cc(OC)c1 (stereo unspecified)",
    "testTarget": "SK-MEL-5 melanoma",
    "categoryLabel": "F"
  },
  {
    "compound": "CC(=O)c1nc2ccccc2n1CCN1CCN(C)CC1",
    "testTarget": "SK-MEL-5 melanoma",
    "categoryLabel": "F"
  },
  {
    "compound": "COc1ccc(-c2nn(-c3cccc(NC(=O)Nc4cc(C(F)(F)F)cc(C(F)(F)F)c4)c3)cc2-c2ccncc2)cc1Cl",
    "testTarget": "SK-MEL-5 melanoma",
    "categoryLabel": "T"
  }
]
